- Tested System: human H1 receptor (Homo sapiens, UniProt P35367)
- Construct: purchased Euroscreen SA, Brussels, Belgium ES-390-M; host or cells: CHO-K1
- Sequence (P35367 whole entry): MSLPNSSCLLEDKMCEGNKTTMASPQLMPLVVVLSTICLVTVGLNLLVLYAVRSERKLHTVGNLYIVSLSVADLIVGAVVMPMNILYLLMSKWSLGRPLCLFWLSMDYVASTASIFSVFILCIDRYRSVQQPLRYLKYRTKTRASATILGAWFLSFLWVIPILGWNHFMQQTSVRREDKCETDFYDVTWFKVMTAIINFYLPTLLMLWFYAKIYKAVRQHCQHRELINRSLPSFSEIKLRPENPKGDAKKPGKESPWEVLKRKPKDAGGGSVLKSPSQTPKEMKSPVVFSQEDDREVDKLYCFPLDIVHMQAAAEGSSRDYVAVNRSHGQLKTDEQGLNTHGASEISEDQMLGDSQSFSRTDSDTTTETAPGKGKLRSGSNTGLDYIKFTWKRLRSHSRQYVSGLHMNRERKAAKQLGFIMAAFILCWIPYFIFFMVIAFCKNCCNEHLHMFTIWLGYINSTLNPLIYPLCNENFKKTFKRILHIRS
- Assay Remarks: Histamine H1 receptor binding, competition displacement of [3H]-pyrilamine
- Study Conditions: displacement of 1 nM [3H]-pyrilamine; 2 μg membranes from recombinant CHO-K1 cells expressing the human H1 receptor; 1 hour at room temperature; read-out: H1 pKi (converted)
Measurement Type: Ki (nM)

Cc1cc(C(=O)O)cc(N2CCC(CN3CCC(Oc4ccc(Cl)c(Cl)c4)CC3)CC2)c1; 7.94

(a) COC(=O)c1ccccc1N1CCC(CN2CCC(Oc3ccc(Cl)c(Cl)c3)CC2)CC1
(b) CCOC(=O)c1cccc(N2CCC(CN3CCC(Cc4ccc(Cl)c(Cl)c4)CC3)CC2)c1
Challenge: Param metric = Ki; output whichever of a , b has the minimum value. Identify your selection by its label.
Response given: a

* * *

- Tested System: human H1 receptor (Homo sapiens)
- Construct: purchased Euroscreen SA, Brussels, Belgium ES-390-M; host or cells: CHO-K1
- Assay Remarks: Histamine H1 receptor binding, competition displacement of [3H]-pyrilamine
- Study Conditions: displacement of 1 nM [3H]-pyrilamine; 2 μg membranes from recombinant CHO-K1 cells expressing the human H1 receptor; 1 hour at room temperature; read-out: H1 pKi (converted)
Measurement Type: Ki (nM)

Cc1cc(Cl)ccc1OC1CCN(CC2CCN(c3ccc([N+](=O)[O-])cc3C(=O)O)CC2)CC1 [Example 59]; 1.58
O=C(O)c1cccc(N2CCC(CN3CCC(Cc4ccc(Cl)c(Cl)c4)CC3)CC2)c1 [Example 106]; 20

(A) O=C(O)c1ccccc1N1CCC(O)(CN2CCC(Oc3ccc(Cl)c(Cl)c3)CC2)CC1 [Example 63]
(B) N#Cc1ccc(OC2CCN(CC3CCN(c4cc(Cl)ccc4C(=O)O)CC3)CC2)cc1Cl [Example 36]
Challenge: Sort A and B by Ki descending and give the first. Pick one and reply with its label.
Response given: A

* * *

- Tested System: human H1 receptor (Homo sapiens, UniProt P35367)
- Construct: purchased Euroscreen SA, Brussels, Belgium ES-390-M; host or cells: CHO-K1
- Assay Remarks: Histamine H1 receptor binding, competition displacement of [3H]-pyrilamine
- Study Conditions: displacement of 1 nM [3H]-pyrilamine; 2 μg membranes from recombinant CHO-K1 cells expressing the human H1 receptor; 1 hour at room temperature; read-out: H1 pKi (converted)
Measurement Type: Ki (nM)

Cc1cc(Cl)ccc1OC1CCN(CC2CCN(c3ccccc3C(=O)O)CC2)CC1; 50.1
N#Cc1ccc(OC2CCN(CC3CCN(c4c(Cl)cccc4C(=O)O)CC3)CC2)cc1Cl; 79.4
COc1cccc(C(=O)O)c1N1CCC(CN2CCC(Oc3ccc(C#N)c(Cl)c3)CC2)CC1; 316
N#Cc1ccc(OC2CCN(CC3CCN(c4ccccc4C(=O)O)CC3)CC2)cc1Cl; 631
Cc1ccc(C(=O)O)c(N2CCC(CN3CCC(Oc4ccc(Cl)c(Cl)c4)CC3)CC2)n1; 5.01

(P) Cc1c(OC2CCN(CC3CCN(c4cccc(C(=O)O)c4)CC3)CC2)ccc(Cl)c1Cl
(Q) Cc1cc(OC2CCN(CC3CCN(c4cc(Cl)ccc4C(=O)O)CC3)CC2)ccc1Cl
Challenge: Select one. Lower Ki: P or Q Indicate your choice by writing its label.
Response given: Q
(Q: 2.51 nM, P: 20 nM)
